TARGET_UNDER_TEST: CTX-M-14 (Escherichia coli, UniProt Q9L5C7)
Sequence (Q9L5C7 entry or part of it): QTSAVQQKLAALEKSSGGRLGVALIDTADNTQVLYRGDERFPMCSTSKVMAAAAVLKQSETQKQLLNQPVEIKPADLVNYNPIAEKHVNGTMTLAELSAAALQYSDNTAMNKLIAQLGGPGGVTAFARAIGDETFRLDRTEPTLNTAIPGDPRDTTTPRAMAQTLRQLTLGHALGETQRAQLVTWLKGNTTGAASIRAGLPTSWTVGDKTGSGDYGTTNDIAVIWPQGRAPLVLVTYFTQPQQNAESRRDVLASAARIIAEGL
TEST_SUMMARY: Ki app of β-lactamase inhibition, purified enzyme
STATED_CONDITIONS: 10-minute preincubation; nitrocefin substrate
The entries below are paired with their reported Ki.
Numbers only here, please. The scale is nM.

Example cases with answers are listed next.
[in] Lab note: need Ki for CC1=C[C@@H]2CN(C(=O)N2OS(=O)(=O)O)[C@@H]1C(N)=O [Durlobactam, durlobactam] on CTX-M-14 (Escherichia coli, UniProt Q9L5C7), anyone have it?
[out] 0.37

[in] Same question for O=C(O)c1c(F)ccc2c1OB(O)[C@@H]1C[C@H]21 [Xeruborbactam, xeruborbactam] please.
[out] 0.29

[in] Same question for NCCN[C@H]1CC[C@H](CC(=O)N[C@H]2Cc3cccc(C(=O)O)c3OB2O)CC1 [Taniborbactam, taniborbactam] please.
[out] 1.2

[in] Same question for O=C(NC1CCNCC1)[C@@H]1CC[C@@H]2CN1C(=O)N2OS(=O)(=O)O [Relebactam, relebactam] please.
[out] 10

Now take the following compound into account.
[in] Lab note: need Ki for NC(=O)[C@@H]1CC[C@@H]2CN1C(=O)N2OS(=O)(=O)O [Avibactam, avibactam] on CTX-M-14 (Escherichia coli, UniProt Q9L5C7), anyone have it?
[out] 0.41
